Test system: RSV (recRSV A2-L19F and clinical RSV isolates)
Assay: microbe, parasite or virus in culture
Assay type: cell-based
Details: human respiratory syncytial virus, HEp-2, read-out: half-maximal effective concentrations (EC50 values)

# Compound, EC50
rows = [
    ("O=c1ccn([C@@H]2O[C@](F)(CO)[C@@H](O)[C@H]2O)c(=O)[nH]1 [4′-FlU, 4′-fluorouridine]", "610 to 1200 nM"),
]

###

Test system: SDH-A
Test: Quantitative immunocytochemistry on HAE cells, nuclear-encoded protein
Conditions: read-out: IC50, steady-state level of nuclear-encoded SDH-A
Property name: IC50 (µM)

# Compound, Property name, Readout unit, Obs value
records = [
    ("O=c1ccn([C@@H]2O[C@](F)(CO)[C@@H](O)[C@H]2O)c(=O)[nH]1 [4′-FlU, 4′-fluorouridine]", "IC50", "µM", 273),
]

Source of measurements: paper PMC9206510
